Numbers sourced from paper PMC9090415.

# % inhibition Apo pol 5' annotations
# TARGET_OF_ASSAY: P. falciparum apicoplast DNA polymerase (Pf-apPOL) (Plasmodium falciparum, UniProt Q8ILY1)
# Sequence (Q8ILY1 entry or part of it): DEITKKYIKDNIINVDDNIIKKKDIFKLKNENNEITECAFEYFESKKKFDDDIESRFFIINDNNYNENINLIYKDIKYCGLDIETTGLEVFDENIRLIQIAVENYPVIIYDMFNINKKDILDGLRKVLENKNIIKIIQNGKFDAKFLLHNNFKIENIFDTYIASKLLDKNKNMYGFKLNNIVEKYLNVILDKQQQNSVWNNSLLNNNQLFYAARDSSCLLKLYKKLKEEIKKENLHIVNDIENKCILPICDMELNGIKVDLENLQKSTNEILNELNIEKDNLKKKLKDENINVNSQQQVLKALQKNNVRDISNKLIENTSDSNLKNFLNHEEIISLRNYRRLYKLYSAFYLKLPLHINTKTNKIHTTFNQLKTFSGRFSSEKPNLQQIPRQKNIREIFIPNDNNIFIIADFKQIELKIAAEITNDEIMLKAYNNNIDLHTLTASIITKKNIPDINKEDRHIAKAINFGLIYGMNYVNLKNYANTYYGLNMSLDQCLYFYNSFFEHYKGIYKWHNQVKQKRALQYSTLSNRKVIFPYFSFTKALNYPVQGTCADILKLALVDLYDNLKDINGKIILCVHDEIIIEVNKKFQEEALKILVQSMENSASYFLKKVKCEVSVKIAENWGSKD
# METHOD_NOTES: Fluorescence-based high-throughput DNA polymerase assay (molecular beacon), primary screen and dose-response
# Type: biochemical
# DETAILS: DRC-2, 5', concentration 2.5
# From the text: The HT assay employs a molecular beacon, a stem-loop DNA template with a Cy3 dye and the Black Hole Quencher on the 3′ and 5′ ends of the DNA, respectively. Pf-apPOL concentration is based on a calculated absorptivity of ε280 = 56750 M^−1 cm^−1. […] To identify apPOL inhibitors we utilised our previously developed high-throughput DNA polymerase assay. […] The assay accurately recapitulates the kinetic behaviour of apPOL, as measured through more conventional low-throughput gel-based assays. […]
Kindly answer with a numeric value in %, unit omitted.

Quick note, % inhibition Apo pol 5' for CS(=O)(=O)c1cccc(C(=O)Nc2nnc(-c3ccno3)o2)c1 landed at 8

Lab note: CC1=NNC(=O)C1Oc1ccc(Cl)cc1Cl (stereo not drawn) gave % inhibition Apo pol 5' of 10

###

# TARGET_OF_ASSAY: P. falciparum apicoplast DNA polymerase (Pf-apPOL) (Plasmodium falciparum)
# METHOD_NOTES: Fluorescence-based high-throughput DNA polymerase assay (molecular beacon), primary screen and dose-response
# Format: biochemical
# DETAILS: DRC-2; 90'; concentration 20
In this section, each of the compounds is paired with its reported % inhibition ApPOL 90'.
Give just the numeric value; % need not be written.

As a guide, the following entries are already answered.
compound="C=CC1=C(C)c2cc3[nH]c(cc4nc(cc5[nH]c(cc1n2)c(C)c5CCC(=O)O)C(CCC(=O)O)=C4C)c(C)c3C=C [Molecule 91]" value_type="% inhibition ApPOL 90'" measurement_units=% number=76
compound="Cc1cc(C)c2c(O)nc(SCC(=O)c3ccc(O)c(O)c3)nc2n1 [Molecule 88]" value_type="% inhibition ApPOL 90'" measurement_units=% number=71
compound="Cc1ccc(N2CCC(NC(=O)Cc3cccs3)C2=O)cc1C (centres unmarked) [Molecule 57, O=C(NC1CCN(C1=O)c1ccc(c(c1)C)C)Cc1cccs1]" value_type="% inhibition ApPOL 90'" measurement_units=% number=47
compound="COc1ccc(-c2n[nH]cc2Oc2ccc(Cl)cc2)c(O)c1 [KU0029837]" value_type="% inhibition ApPOL 90'" measurement_units=% number=53
compound="Cc1cccc2c(C(=O)NC(C)C)cc(N(C)C)nc12 [Molecule 47, CC(NC(=O)c1cc(nc2c1cccc2C)N(C)C)C]" value_type="% inhibition ApPOL 90'" measurement_units=% number=41

Record CC(C)(C)OC(=O)COc1ccc2cc(-c3ccccc3)c(=O)oc2c1 [Molecule 81] , field % inhibition ApPOL 90': 18

Documented % inhibition ApPOL 90' of CC(C)(C)c1cc(C(=O)C(C#N)=NNc2cccc(Cl)c2)no1 [Molecule 98] : 61

Record summary for COc1ccc(-c2cc3nc4c(c(=O)n3[nH]2)CCN(C(=O)CCc2ccccc2)C4)cc1 [Molecule 17] : reported % inhibition ApPOL 90' = 53

###

# TARGET_OF_ASSAY: P. falciparum apicoplast DNA polymerase (Pf-apPOL) (Plasmodium falciparum)
# METHOD_NOTES: Fluorescence-based high-throughput DNA polymerase assay (molecular beacon), primary screen and dose-response
# Format: biochemical
# DETAILS: conc. 5; 5'; DRC-2
VALUE_TYPE: % inhibition Apo pol 5'

The cases that follow already have their % inhibition Apo pol 5' on record.
compound="COc1ccc(NC(=O)Cn2ccc3c(=O)[nH]ccc32)cc1Cl [Molecule 10, COc1ccc(cc1Cl)NC(=O)Cn1ccc2c1cc[nH]c2=O]" result=37%
compound=Cc1cc(C)cc(-n2nc3c(c2NC(=O)c2ccco2)CSC3)c1 result=21%
compound=O=C1NCCCn2cc(S(=O)(=O)Nc3ccccc3)cc21 result=8%

Consider now this further compound.
# % inhibition Apo pol 5' measured on P. falciparum apicoplast DNA polymerase (Pf-apPOL) (Plasmodium falciparum) for item COc1ccc(C)cc1NC(=O)Cn1ccc2c(=O)[nH]ccc21 [Molecule 15, COc1ccc(cc1NC(=O)Cn1ccc2c1cc[nH]c2=O)C] = 24%
